studySystem: μ-opioid receptor (Homo sapiens)
Sequence (P35372 whole entry): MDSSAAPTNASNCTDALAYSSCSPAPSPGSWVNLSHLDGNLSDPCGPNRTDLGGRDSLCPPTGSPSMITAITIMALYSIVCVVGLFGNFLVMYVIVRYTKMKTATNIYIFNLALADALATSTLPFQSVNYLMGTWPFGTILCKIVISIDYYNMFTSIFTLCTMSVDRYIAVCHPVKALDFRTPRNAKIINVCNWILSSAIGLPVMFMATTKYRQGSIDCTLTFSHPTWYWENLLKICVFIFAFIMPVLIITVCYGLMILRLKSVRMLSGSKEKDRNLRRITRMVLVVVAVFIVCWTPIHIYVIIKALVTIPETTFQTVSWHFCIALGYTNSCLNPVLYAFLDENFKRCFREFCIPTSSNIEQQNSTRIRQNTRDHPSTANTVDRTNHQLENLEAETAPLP
experimentNotes: Opioid receptor function test (antagonist activity) against 30 nM DAMGO
conditionDetails: antagonist activity vs 30 nM DAMGO
pIC50: −log10 of the molar value.

>  <compoundSmiles>
CCn1cc(C(=O)N2C[C@H]3C[C@@]45CC[C@@H]2[C@@H]3[C@@]42CCN(CC3CC3)[C@@H]5Cc3ccc(O)cc32)ccc1=O

>  <pIC50>
8.68

$$$$
>  <compoundSmiles>
O=C(c1cccc(=O)[nH]1)N1C[C@H]2C[C@@]34CC[C@@H]1[C@@H]2[C@@]31CCN(CC2CC2)[C@@H]4Cc2ccc(O)cc21

>  <pIC50>
8.89

$$$$
>  <compoundSmiles>
Cn1c(C(=O)N2C[C@H]3C[C@@]45CC[C@@H]2[C@@H]3[C@@]42CCN(CC3CC3)[C@@H]5Cc3ccc(O)cc32)cccc1=O

>  <pIC50>
8.24

$$$$
>  <compoundSmiles>
O=C(c1cccc[n+]1[O-])N1C[C@H]2C[C@@]34CC[C@@H]1[C@@H]2[C@@]31CCN(CC2CC2)[C@@H]4Cc2ccc(O)cc21

>  <pIC50>
8.39

$$$$
>  <compoundSmiles>
O=C(c1ccc[nH]c1=O)N1C[C@H]2C[C@@]34CC[C@@H]1[C@@H]2[C@@]31CCN(CC2CC2)[C@@H]4Cc2ccc(O)cc21

>  <pIC50>
8.34

$$$$
>  <compoundSmiles>
Cn1cc(C(=O)N2C[C@H]3C[C@@]45CC[C@@H]2[C@@H]3[C@@]42CCN(CC3CC3)[C@@H]5Cc3ccc(O)cc32)ccc1=O

>  <pIC50>
8.62

$$$$

====

studySystem: κ-opioid receptor (Homo sapiens)
Sequence (P41145 whole entry): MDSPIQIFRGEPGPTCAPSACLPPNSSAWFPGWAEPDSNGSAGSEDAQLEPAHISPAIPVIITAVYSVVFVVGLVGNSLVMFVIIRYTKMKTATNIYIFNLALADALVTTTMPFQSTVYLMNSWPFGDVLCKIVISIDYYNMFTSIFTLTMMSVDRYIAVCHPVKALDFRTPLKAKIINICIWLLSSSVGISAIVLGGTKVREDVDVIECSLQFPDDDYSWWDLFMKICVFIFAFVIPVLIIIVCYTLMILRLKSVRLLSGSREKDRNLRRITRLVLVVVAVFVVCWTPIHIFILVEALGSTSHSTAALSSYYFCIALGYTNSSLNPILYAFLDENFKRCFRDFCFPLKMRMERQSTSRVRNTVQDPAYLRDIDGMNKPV
experimentNotes: Opioid receptor function test (antagonist activity) against 100 nM U-69593
conditionDetails: antagonist activity vs 100 nM U-69593
Procedure: Method: Using a Lance Ultra cAMP kit (manufactured by PerkinElmer, Inc.), the investigation was conducted in accordance with the prescribed method. […] Subsequently, the cAMP detection reagent included in the kit was added, and after 1 hour, a time-resolved fluorescence measurement was performed using an EnVision plate reader (manufactured by PerkinElmer, Inc.). […]

>  <molecule>
O=C(c1ccc[nH]c1=O)N1C[C@H]2C[C@@]34CC[C@@H]1[C@@H]2[C@@]31CCN(CC2CC2)[C@@H]4Cc2ccc(O)cc21 [Example 3]

>  <IC50 (nM)>
11.1

$$$$
>  <molecule>
Cn1cc(C(=O)N2C[C@H]3C[C@@]45CC[C@@H]2[C@@H]3[C@@]42CCN(CC3CC3)[C@@H]5Cc3ccc(O)cc32)ccc1=O [Example 9]

>  <IC50 (nM)>
3.3

$$$$
>  <molecule>
O=C(c1cccc(=O)[nH]1)N1C[C@H]2C[C@@]34CC[C@@H]1[C@@H]2[C@@]31CCN(CC2CC2)[C@@H]4Cc2ccc(O)cc21 [Example 7]

>  <IC50 (nM)>
4.6

$$$$
>  <molecule>
CCn1cc(C(=O)N2C[C@H]3C[C@@]45CC[C@@H]2[C@@H]3[C@@]42CCN(CC3CC3)[C@@H]5Cc3ccc(O)cc32)ccc1=O [Example 28]

>  <IC50 (nM)>
4

$$$$
>  <molecule>
O=C(c1cccc[n+]1[O-])N1C[C@H]2C[C@@]34CC[C@@H]1[C@@H]2[C@@]31CCN(CC2CC2)[C@@H]4Cc2ccc(O)cc21 [Example 1]

>  <IC50 (nM)>
3.3

$$$$
>  <molecule>
Cn1c(C(=O)N2C[C@H]3C[C@@]45CC[C@@H]2[C@@H]3[C@@]42CCN(CC3CC3)[C@@H]5Cc3ccc(O)cc32)cccc1=O [Example 10]

>  <IC50 (nM)>
3.4

$$$$
